B1: library; numbered along this chain (parent)
chain: MATDAALRRLLRLHRTEIAVAVDSAFPLLHALADHDVVPEDKFQETLHLKEKEGCPQAFHALLSWLLTQDSTAILDFWRVLFKDYNLERYGRLQPILDSFPKDVDLSQPRKGRKPPAVPKALVPPPRLPTKRKASEEARAAAPAALTPRGTASPGSQLKAKPPKKPESSAEQQRLPLGNGIQTMSASVQRAVAMSSGDVPGARGAVEGILIQQVFESGGSKKCIQVGGEFYTPSKFEDSGSGKNKARSSSGPKPLVRAKGAQGAAPGGGEARLGQQGSVPAPLALPSDPQLHQKNEDECAVCRDGGELICCDGCPRAFHLACLSPPLREIPSGTWRCSSCLQATVQEVQPRAEEPRPQEPPVETPLPPGLRSAGEEVRGPPGEPLAGMDTTLVYKHLPAPPSAAPLPGLDSSALHPLLCVGPEGQQNLAPGARCGVCGDGTDVLRCTHCAAAFHWRCHFPAGTSRPGTGLRCRSCSGDVTPAPVEGVLAPSPARLAPGPAKDDTASHEPALHRDDLESLLSEHTFDGILQWAIQSMARPAAPFPS

Variants of: B1
Experiment: AIRE transcriptional activation functional score (insulin promoter-GFP; nonsense median 0, synonymous median 1) (normalised score); higher = higher AIRE activity (more reporter activation)
Conditions: with insulin promoter-GFP reporter in HEK293
Documented AIRE transcriptional activation functional score across a set of variants
Attribute Measured: AIRE transcriptional activation functional score

Variant String	Recorded Result
L392F	1.15
Q225F	-0.00208
L62Y	0.0998
G251R	0.585
P361A	1.01
S339T	1.12
T72Y	0.224
S185T	1.56
P115V	1.21
Q172C	1.13
V214I	0.735
K161W	0.29
Q157I	0.859
T151S	1.01
V301F	1.29
L327Y	1.2
L320Y	1.09
R110C	0.426
G201T	0.924
F100T	-2.46
S220G	0.764
A505I	1.09
